System: Estrogen receptor (Homo sapiens) | Read-out: IC50
Quantity: IC50 (µM)

>>> data_value("C[C@]12CC[C@H]3[C@@H](CC=C4[C@H]5CC=C[C@]43CC[C@@H]5O)[C@@H]1CC[C@@H]2O")
2.24
>>> data_value("C=C[C@]12CC[C@H](O)CC1=CC[C@H]1[C@@H]3CC[C@H](O)[C@@]3(C)CC[C@@H]12")
2.24
>>> data_value("C[C@]12CC[C@H]3[C@@H](CC[C@H]4[C@H]5CCC[C@]43CC[C@@H]5O)[C@@H]1CC[C@@H]2O")
4.99
>>> data_value("C[C@]12CC[C@H]3[C@@H](CC=C4[C@H]5CC[C@]43CC[C@@H]5O)[C@@H]1CC[C@@H]2O")
0.317
>>> data_value("C/C=C\\[C@]12CC[C@H](O)CC1=CC[C@H]1[C@@H]3CC[C@H](O)[C@@]3(C)CC[C@@H]12")
1.96
>>> data_value("C[C@]12CC[C@H]3[C@@H](CC=C4[C@H]5CC[C@]43CC[C@H]5O)[C@@H]1CC[C@@H]2O")
8.13
>>> data_value("CC[C@]12CC[C@H](O)CC1=CC[C@@H]1[C@@H]2CC[C@]2(C)[C@@H](O)CC[C@@H]12")
2.33

###

Here, each record is paired with measured pEC50 data.
Target or system: Estrogen receptor (Homo sapiens, UniProt P03372)
Sequence (P03372 whole entry): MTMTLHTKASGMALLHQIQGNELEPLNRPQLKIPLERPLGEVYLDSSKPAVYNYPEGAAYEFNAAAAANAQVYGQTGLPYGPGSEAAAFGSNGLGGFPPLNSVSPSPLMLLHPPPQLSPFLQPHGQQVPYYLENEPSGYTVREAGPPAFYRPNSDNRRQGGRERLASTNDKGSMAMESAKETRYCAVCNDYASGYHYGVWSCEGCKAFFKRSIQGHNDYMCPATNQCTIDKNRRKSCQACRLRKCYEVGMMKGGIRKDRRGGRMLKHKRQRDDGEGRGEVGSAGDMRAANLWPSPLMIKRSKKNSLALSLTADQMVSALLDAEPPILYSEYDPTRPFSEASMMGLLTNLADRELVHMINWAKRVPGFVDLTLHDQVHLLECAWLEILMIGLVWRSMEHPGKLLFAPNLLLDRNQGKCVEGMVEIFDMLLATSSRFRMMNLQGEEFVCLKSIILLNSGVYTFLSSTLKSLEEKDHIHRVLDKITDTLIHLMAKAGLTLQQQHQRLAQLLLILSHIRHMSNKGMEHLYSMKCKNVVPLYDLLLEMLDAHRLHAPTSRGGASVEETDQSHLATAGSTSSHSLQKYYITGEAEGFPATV
pEC50: −log10 of the molar value.
Quantity: pEC50

>>> data_value("C[C@]12CC[C@H]3[C@@H](CC=C4[C@@H]5C(=O)CC[C@@]43C[C@H]5O)[C@@H]1CC[C@@H]2O")
"< 6.00"
>>> data_value("C[C@]12CC[C@H]3[C@@H](CC=C4[C@H]5CC[C@]43CCC5=O)[C@@H]1CC[C@@H]2O")
6.39
>>> data_value("C[C@]12CC[C@H]3[C@@H](CC=C4C[C@@H]5CC[C@@]43CC(=O)O5)[C@@H]1CC[C@@H]2O")
"< 6.00"
>>> data_value("C[C@]12CC[C@H]3[C@@H](CC=C4C[C@@H]5CC[C@@]43CCO5)[C@@H]1CC[C@@H]2O")
"< 6.00"

###

Target or system: Estrogen receptor beta (Homo sapiens, UniProt Q92731)
Sequence (Q92731 whole entry): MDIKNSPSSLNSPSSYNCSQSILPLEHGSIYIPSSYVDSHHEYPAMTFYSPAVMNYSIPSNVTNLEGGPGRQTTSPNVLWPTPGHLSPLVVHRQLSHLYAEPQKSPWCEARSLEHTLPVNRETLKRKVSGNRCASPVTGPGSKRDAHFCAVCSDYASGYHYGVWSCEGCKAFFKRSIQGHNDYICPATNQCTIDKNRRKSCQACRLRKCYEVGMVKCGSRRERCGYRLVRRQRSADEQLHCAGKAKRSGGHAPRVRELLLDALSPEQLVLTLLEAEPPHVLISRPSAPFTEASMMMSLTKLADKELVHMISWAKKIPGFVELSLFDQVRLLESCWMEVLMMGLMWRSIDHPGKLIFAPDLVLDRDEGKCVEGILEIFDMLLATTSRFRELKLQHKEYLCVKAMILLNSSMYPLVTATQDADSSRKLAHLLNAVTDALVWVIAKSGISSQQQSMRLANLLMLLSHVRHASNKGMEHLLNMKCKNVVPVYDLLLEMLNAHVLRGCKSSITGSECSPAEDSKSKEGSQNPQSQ
pIC50: −log10 of the molar value.
Quantity: pIC50

>>> data_value("C[C@]12CC[C@H]3[C@@H](CC[C@H]4[C@H]5CCC[C@]43CC[C@@H]5O)[C@@H]1CC[C@@H]2O")
6.49
>>> data_value("C=CC[C@@H]1C2=CC[C@H]3[C@@H]4CC[C@H](O)[C@@]4(C)CC[C@@H]3[C@@]2(C=C)CC[C@@H]1O")
5.52
>>> data_value("C[C@]12CC[C@H]3[C@@H](CC=C4[C@H]5CC[C@]43CC[C@H]5O)[C@@H]1CC[C@@H]2O")
6.07

###

# pEC50 values compiled below
Target or system: Estrogen receptor beta (Homo sapiens)
pEC50: −log10 of the molar value.
Quantity: pEC50

>>> data_value("C=CC[C@@H]1C2=CC[C@H]3[C@@H]4CC[C@H](O)[C@@]4(C)CC[C@@H]3[C@@]2(C=C)CC[C@@H]1O")
"< 6.00"
>>> data_value("C[C@]12CC[C@H]3[C@@H](CC4C5=CC(=O)CC[C@@]53C[C@H]4O)[C@@H]1CC[C@@H]2O")
"< 6.00"
>>> data_value("C[C@]12CC[C@H]3[C@@H](CC=C4[C@@H]5C(=O)CC[C@@]43C[C@H]5O)[C@@H]1CC[C@@H]2O")
"< 6.00"

src = ChEMBL document CHEMBL1139947
